Origin of the recorded values: patent US5668165A

Tested on: binding of Rev to the RRE (67-nt RNA probe containing a high affinity Rev-binding site)
Parameters: species or system HIV
Details: Rev/RRE binding inhibition assay, summary of thirteen 2-DOS aminoglycosides
measurement.type: inhibiting the binding of Rev to the RRE

compound="NC[C@H]1O[C@H](O[C@H]2[C@H](O)[C@@H](O[C@H]3O[C@H](CO)[C@@H](O)[C@H](N)[C@H]3O)[C@H](N)C[C@@H]2N)[C@H](N)[C@@H](O)[C@@H]1O [kanamycin B]" experimental_target="binding of Rev to the RRE (67-nt RNA probe containing a high affinity Rev-binding site)" assay_value=effective
compound="CN[C@@H]1[C@@H](O)[C@@H](O[C@@H]2[C@@H](O)[C@H](O[C@H]3OC(CN)=CC[C@H]3N)[C@@H](N)C[C@H]2N)OC[C@]1(C)O [sisomicin]" experimental_target="binding of Rev to the RRE (67-nt RNA probe containing a high affinity Rev-binding site)" assay_value=effective
